Source listed as paper PMC10847306.

# maps each entry to its MIC
Tested on: E. coli clinical strain E01
procedure_details: microbe, parasite or virus in culture
measurement_conditions: Escherichia coli, 18 h

Some solved cases for reference:
compound="CN(C)[C@@H]1C(O)=C(C(N)=O)C(=O)[C@@]2(O)C(O)=C3C(=O)c4c(O)cccc4[C@@](C)(O)[C@H]3C[C@@H]12 [TET, tetracycline]" meas_value="≤ 0.5 µg/mL"
compound="C[C@@H](O)[C@H]1C(=O)N2C(C(=O)O)=C(SCCN=CN)C[C@H]12 [IPM, imipenem]" meas_value="≤ 1 µg/mL"
compound="C[C@H]1COc2c(N3CCN(C)CC3)c(F)cc3c(=O)c(C(=O)O)cn1c23 [LEV, levofloxacin]" meas_value="≤ 0.5 µg/mL"

Now for another entry.
Lookup: MIC / E. coli clinical strain E01 / CO/N=C(\C(=O)N[C@@H]1C(=O)N2C(C(=O)[O-])=C(C[N+]3(C)CCCC3)CS[C@H]12)c1csc(N)n1 [FEP, cefepime]
≤ 2 µg/mL

---

Tested on: E. coli clinical strain E22
procedure_details: microbe, parasite or virus in culture
measurement_conditions: strain E22
experimental_readout: susceptibility category (S/I/R) given with the MIC

compound="CO/N=C(\\C(=O)N[C@@H]1C(=O)N2C(C(=O)[O-])=C(C[N+]3(C)CCCC3)CS[C@H]12)c1csc(N)n1 [FEP, cefepime]" measured_target="E. coli clinical strain E22" meas_value=R
compound="C[C@@H](O)[C@H]1C(=O)N2C(C(=O)O)=C(SCCN=CN)C[C@H]12 [IPM, imipenem]" measured_target="E. coli clinical strain E22" meas_value=S
compound="C[C@H]1COc2c(N3CCN(C)CC3)c(F)cc3c(=O)c(C(=O)O)cn1c23 [LEV, levofloxacin]" measured_target="E. coli clinical strain E22" meas_value=R
compound="CN(C)[C@@H]1C(O)=C(C(N)=O)C(=O)[C@@]2(O)C(O)=C3C(=O)c4c(O)cccc4[C@@](C)(O)[C@H]3C[C@@H]12 [TET, tetracycline]" measured_target="E. coli clinical strain E22" meas_value=S

---

System: E. coli clinical strain E21
procedure_details: microbe, parasite or virus in culture
measurement_conditions: strain E21
experimental_readout: susceptibility category (S/I/R) given with the MIC

molecule=C[C@H]1COc2c(N3CCN(C)CC3)c(F)cc3c(=O)c(C(=O)O)cn1c23 meas_value=S
molecule=CN(C)[C@@H]1C(O)=C(C(N)=O)C(=O)[C@@]2(O)C(O)=C3C(=O)c4c(O)cccc4[C@@](C)(O)[C@H]3C[C@@H]12 meas_value=S
molecule=C[C@@H](O)[C@H]1C(=O)N2C(C(=O)O)=C(SCCN=CN)C[C@H]12 meas_value=S
molecule="CO/N=C(\\C(=O)N[C@@H]1C(=O)N2C(C(=O)[O-])=C(C[N+]3(C)CCCC3)CS[C@H]12)c1csc(N)n1 [FEP, cefepime]" meas_value=R

---

# maps each entry to its MIC
Tested on: E. coli clinical strain E07
procedure_details: microbe, parasite or virus in culture
measurement_conditions: Escherichia coli, 18 h

Some solved cases for reference:
molecule=CN(C)[C@@H]1C(O)=C(C(N)=O)C(=O)[C@@]2(O)C(O)=C3C(=O)c4c(O)cccc4[C@@](C)(O)[C@H]3C[C@@H]12 meas_value="> 8 µg/mL"
molecule="CO/N=C(\\C(=O)N[C@@H]1C(=O)N2C(C(=O)[O-])=C(C[N+]3(C)CCCC3)CS[C@H]12)c1csc(N)n1 [FEP, cefepime]" meas_value="> 16 µg/mL"
molecule=C[C@@H](O)[C@H]1C(=O)N2C(C(=O)O)=C(SCCN=CN)C[C@H]12 meas_value="≤ 1 µg/mL"

Lookup: MIC / E. coli clinical strain E07 / C[C@H]1COc2c(N3CCN(C)CC3)c(F)cc3c(=O)c(C(=O)O)cn1c23
≤ 0.5 µg/mL
